assayTarget: Fes (UniProt P07332)
Sequence (P07332 whole entry, looked up): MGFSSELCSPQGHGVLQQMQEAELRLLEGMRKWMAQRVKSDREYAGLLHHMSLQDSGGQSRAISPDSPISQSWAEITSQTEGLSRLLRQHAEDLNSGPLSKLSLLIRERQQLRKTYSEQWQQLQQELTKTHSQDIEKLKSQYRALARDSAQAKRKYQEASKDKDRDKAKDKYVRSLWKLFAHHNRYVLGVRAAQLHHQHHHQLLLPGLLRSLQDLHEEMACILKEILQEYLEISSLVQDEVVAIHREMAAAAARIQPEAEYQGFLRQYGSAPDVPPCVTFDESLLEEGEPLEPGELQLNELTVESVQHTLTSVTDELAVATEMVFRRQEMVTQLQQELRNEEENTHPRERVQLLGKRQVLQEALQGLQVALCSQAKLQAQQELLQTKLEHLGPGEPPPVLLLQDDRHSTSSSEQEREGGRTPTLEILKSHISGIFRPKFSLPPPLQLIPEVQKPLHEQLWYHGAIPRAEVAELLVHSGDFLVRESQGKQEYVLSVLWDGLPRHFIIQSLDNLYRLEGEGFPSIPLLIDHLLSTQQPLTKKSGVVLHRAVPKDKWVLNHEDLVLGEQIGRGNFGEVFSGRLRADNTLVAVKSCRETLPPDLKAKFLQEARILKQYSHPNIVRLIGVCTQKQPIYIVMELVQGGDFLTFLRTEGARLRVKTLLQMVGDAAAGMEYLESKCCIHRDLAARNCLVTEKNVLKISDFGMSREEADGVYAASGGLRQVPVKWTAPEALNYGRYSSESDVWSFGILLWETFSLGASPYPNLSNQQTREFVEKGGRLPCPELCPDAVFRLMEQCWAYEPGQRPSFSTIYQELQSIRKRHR
assayMethodText: phosphorylation enrichment, bacterial display (enrichment ratio); higher = better substrate or ligand; peptides without Tyr show the background
Kind request: treat 1 as inclusive, so phosphorylation enrichment at 1 or higher is class 1, anything lower is class 0.

| primarySequence | labelValue |
| --- | --- |
| PFDAEYGGGGG [AKR1B10_Y316_N313D] | class 1 |
| YDGKDYIALNE [HLA-A_Y147] | class 1 |
| GNLQEYLTRHV [TGFBR2_Y336] | class 0 |
| SWSTSYSGFRC [NKAPL_Y91_Y96C_YF] | class 1 |

Could you now look at the following sequence, please?
Query :: Entry RESFKYLPSSL [CXXC1_Y218_F219L_YF] : is its phosphorylation enrichment no less than 1?
Result :: class 0

====

assayTarget: Fes (UniProt P07332)
assayMethodText: phosphorylation enrichment, bacterial display (enrichment ratio); higher = better substrate or ligand; peptides without Tyr show the background
Kind request: treat 0.8 as inclusive, so phosphorylation enrichment at 0.8 or higher is Satisfied, anything lower is Not satisfied.

| primarySequence | labelValue |
| --- | --- |
| IQKKFYRAILE [CHD7_Y1218_YF] | Not satisfied |
| SDYYAYSPVRE [H6PD_Y449] | Satisfied |
| VTVLDYDKTGK [SYT1_Y365_I368T] | Not satisfied |
| RDHFGYRQSVT [CD55_Y245_YF] | Not satisfied |
| LFDPDFMKVIL [CYP4A22_Y104_Y104F_YF] | Satisfied |

Query :: Entry REENGYNTFAS [FGF10_Y161_I156R_YF] : is its phosphorylation enrichment no less than 0.8?
Result :: Satisfied

Query :: Ok, now AIFWRYSKFFD [SH3PXD2B_Y45_R43W_YF]
Result :: Satisfied

Query :: Ok, now ISIFHCAKGQP [MPZ_Y82_Y82C]
Result :: Satisfied

Query :: Ok, now YRQNGYIPGSN [PCDHGA1_Y895_V894G]
Result :: Not satisfied

Query :: Ok, now SSSGGYGGGFG [KRT19_Y61_A60G_YF]
Result :: Not satisfied

Query :: Ok, now HFIKLYEEKTG [PARP1_Y618_M615I]
Result :: Satisfied

Query :: Ok, now PDGHEYIFVDP [PDGFRA_Y572_YF]
Result :: Satisfied

Query :: Ok, now HSVLQYVGGVM [FGGY_Y136]
Result :: Satisfied

Query :: Ok, now KELANYYKLHH [AK7_Y390]
Result :: Not satisfied

====

assayTarget: Fyn (UniProt P06241)
Sequence (P06241 whole entry, looked up): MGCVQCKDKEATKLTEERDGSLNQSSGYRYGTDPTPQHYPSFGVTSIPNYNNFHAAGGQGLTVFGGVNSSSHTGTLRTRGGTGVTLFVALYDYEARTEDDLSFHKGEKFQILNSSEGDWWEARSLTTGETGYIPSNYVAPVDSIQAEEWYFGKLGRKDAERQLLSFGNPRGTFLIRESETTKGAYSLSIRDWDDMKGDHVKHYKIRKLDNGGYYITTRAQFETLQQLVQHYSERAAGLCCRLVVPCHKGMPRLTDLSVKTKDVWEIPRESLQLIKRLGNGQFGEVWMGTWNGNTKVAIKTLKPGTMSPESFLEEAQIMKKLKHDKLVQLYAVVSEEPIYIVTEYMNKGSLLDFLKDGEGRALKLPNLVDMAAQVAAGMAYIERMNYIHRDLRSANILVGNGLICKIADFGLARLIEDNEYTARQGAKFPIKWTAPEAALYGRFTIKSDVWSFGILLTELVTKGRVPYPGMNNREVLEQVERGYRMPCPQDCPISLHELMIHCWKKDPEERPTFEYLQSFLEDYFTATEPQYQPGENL
assayMethodText: phosphorylation enrichment, bacterial display (enrichment ratio); higher = better substrate or ligand; peptides without Tyr show the background
Kindly supply the reported phosphorylation enrichment values for the records listed here.
Answers are plain numbers.

| primarySequence | phosphorylation enrichment |
| --- | --- |
| LNCAGYCDALE [MTUS1_Y151] | 0.514 |

Lab note: each sequence below needs its phosphorylation enrichment filled in.
1. TLQVMYGCDVG [HLA-B_Y123_S121V]
2. PRPACYPSTVS [CACNA1C_Y1832_G1831C]

Result ::
1: 0.508; 2: 0.51

Lab note: each sequence below needs its phosphorylation enrichment filled in.
1. CDIPRYIVSQL [MAST2_Y461]
2. FDAHNYHPLPV [OAT_Y55_G51D_YF]
3. THLAPYSDELR [APOA1_Y190]

Result ::
1: 0.506; 2: 0.501; 3: 0.51

====

Kindly supply the reported SH2 binding enrichment values for the records listed here.
assayTarget: c-Src SH2;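 note: peptide library displayed on the E. coli surface as eCPX fusions, selected cells deep-sequenced, score is each peptide's frequency after selection divided by its frequency in the input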
assayMethodText: SH2 binding enrichment of the phosphorylated peptide, bacterial display (enrichment ratio); higher = better substrate or ligand; peptides without Tyr show the background
Give bare numbers.

Example cases with answers are listed next.
| primarySequence | observedResult |
| --- | --- |
| ILTLKYPIERG [ACTA1_Y71_H75R] | 0.691 |
| RDHFGYRQSVT [CD55_Y245_YF] | 0.629 |
| ARKRKYFKKHE [NFIX_Y40] | 0.259 |
| GGRIDYIAGLD [APRT_Y60] | 0.498 |
| LSIWPYLQKID [MFSD8_Y63_M58L] | 0.797 |
| KHTLSFVDVGT [SDHA_Y629_Y629F] | 0.562 |
| CEAVEYLESKQ [BTK_Y511_M509V] | 0.539 |
| HRGCLYLAIEF [TEK_Y899_Y897C_YF] | 0.206 |

Lab note: each sequence below needs its SH2 binding enrichment filled in.
1. AHLTEYLSTHY [UQCRC1_Y219_D215H]
2. EIELAYRRRPP [GRIN2B_Y1109]
3. VTHKEYFIFLE [CAMKV_Y95_R92H]
4. LDPDSYNKFEN [FOXC1_Y159_M161K]
5. NFDRVYIYHLR [MYOF_Y1137]
6. AIFWRYSKFFD [SH3PXD2B_Y45_R43W_YF]

Result ::
0.511
0.387
1.32
0.409
0.896
0.699

====

Kindly supply the reported phosphorylation enrichment values for the records listed here.
assayTarget: EPHB1 (UniProt P54762)
Sequence (P54762 whole entry, looked up): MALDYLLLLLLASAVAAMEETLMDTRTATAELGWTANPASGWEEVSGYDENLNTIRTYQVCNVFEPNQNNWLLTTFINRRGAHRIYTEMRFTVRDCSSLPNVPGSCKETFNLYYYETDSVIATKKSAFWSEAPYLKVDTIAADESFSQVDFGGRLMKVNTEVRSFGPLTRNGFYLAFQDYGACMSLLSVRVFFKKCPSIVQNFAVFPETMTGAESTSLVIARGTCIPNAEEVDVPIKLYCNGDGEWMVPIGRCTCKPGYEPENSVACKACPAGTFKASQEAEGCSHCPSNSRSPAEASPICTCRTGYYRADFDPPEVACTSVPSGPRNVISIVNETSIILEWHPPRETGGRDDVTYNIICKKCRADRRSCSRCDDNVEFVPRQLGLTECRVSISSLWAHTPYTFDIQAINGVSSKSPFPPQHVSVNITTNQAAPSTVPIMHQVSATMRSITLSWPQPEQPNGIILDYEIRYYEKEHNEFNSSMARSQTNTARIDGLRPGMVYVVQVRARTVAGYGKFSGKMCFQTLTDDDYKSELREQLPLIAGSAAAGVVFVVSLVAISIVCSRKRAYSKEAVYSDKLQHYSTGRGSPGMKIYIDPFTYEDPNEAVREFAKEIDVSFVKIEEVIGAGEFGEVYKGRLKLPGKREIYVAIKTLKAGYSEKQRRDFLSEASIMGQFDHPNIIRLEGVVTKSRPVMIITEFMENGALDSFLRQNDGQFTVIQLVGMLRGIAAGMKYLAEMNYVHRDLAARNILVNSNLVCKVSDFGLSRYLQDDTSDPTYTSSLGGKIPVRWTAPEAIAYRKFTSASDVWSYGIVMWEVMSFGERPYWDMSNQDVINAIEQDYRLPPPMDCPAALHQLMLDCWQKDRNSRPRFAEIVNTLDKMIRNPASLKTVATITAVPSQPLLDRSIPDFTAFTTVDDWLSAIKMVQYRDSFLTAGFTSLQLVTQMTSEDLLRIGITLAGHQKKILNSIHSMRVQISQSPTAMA
assayMethodText: phosphorylation enrichment, bacterial display (enrichment ratio); higher = better substrate or ligand; peptides without Tyr show the background
Numbers only.

Example cases with answers are listed next.
| primarySequence | phosphorylation enrichment |
| --- | --- |
| PMFTKYGNGLL [RPGRIP1L_Y196_S199G] | 0.762 |
| DRLASYLEKVR [KRT13_Y118] | 0.372 |
| FEEDPYLVVNP [MCM6_Y810_YF] | 0.743 |
| PLDEEYFTLQI [TP53_Y327_G325E] | 1.02 |
| DSGKLYALDVL [INO80_Y1104] | 0.711 |
| LYSGDCYRIQG [DDR2_Y740_Y740C] | 1.8 |

Lab note: each sequence below needs its phosphorylation enrichment filled in.
1. DCAAIYGNEPD [AKR1A1_Y50_E55D]
2. YGEYRYRSVIK [CFTR_Y517_D513G]
3. NRDNTYNRVSE [FGA_Y127]
4. QRASDYYSQQM [GBP6_Y333_A331S]

Result ::
1: 0.668; 2: 0.458; 3: 0.472; 4: 0.66

Lab note: each sequence below needs its phosphorylation enrichment filled in.
1. KAFDMYSGDVM [FAM3D_Y122]
2. ERLWDYGMSSS [F8_Y1728]
3. LFSINYLHFGE [KDM4C_Y201_YF]
4. SDFFAYSPVQE [H6PD_Y449_R453Q_YF]

Result ::
1: 1.18; 2: 0.612; 3: 1.3; 4: 0.783

Lab note: each sequence below needs its phosphorylation enrichment filled in.
1. MPIPMYDASQA [CARMIL1_Y637]
2. NTGGYYDLYGG [PTPN11_Y63_D61G]
3. ADFFDYGHGLS [KHDRBS3_Y304_YF]

Result ::
1: 0.867; 2: 1.98; 3: 0.585

Lab note: each sequence below needs its phosphorylation enrichment filled in.
1. KSLFHHRQYSA [CPS1_Y1491_Y1491H]
2. EYGRRYGFSRQ [CCDC93_Y209]

Result ::
1.04
0.41

====

assayTarget: FGFR1 (UniProt P11362)
Sequence (P11362 whole entry, looked up): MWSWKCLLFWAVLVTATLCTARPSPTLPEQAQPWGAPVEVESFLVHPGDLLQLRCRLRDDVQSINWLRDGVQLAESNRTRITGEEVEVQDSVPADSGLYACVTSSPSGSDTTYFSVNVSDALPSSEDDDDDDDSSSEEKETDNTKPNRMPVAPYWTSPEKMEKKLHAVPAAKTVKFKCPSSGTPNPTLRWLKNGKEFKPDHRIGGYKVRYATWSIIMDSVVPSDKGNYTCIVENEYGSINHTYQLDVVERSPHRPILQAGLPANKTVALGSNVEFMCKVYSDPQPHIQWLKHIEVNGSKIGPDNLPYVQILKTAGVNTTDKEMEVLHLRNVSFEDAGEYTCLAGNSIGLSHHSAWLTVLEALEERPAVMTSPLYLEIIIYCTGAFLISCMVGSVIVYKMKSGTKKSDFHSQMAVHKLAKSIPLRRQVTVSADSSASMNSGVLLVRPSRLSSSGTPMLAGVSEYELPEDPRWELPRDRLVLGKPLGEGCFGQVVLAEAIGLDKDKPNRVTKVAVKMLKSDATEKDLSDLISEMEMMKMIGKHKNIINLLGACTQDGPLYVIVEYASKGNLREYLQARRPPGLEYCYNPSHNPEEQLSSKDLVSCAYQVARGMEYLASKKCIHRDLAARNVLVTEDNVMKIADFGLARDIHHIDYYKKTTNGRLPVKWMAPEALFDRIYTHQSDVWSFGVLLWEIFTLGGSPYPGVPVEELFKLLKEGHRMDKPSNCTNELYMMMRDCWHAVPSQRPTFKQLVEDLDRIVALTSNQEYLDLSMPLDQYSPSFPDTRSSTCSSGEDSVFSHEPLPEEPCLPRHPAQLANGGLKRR
assayMethodText: phosphorylation enrichment, bacterial display (enrichment ratio); higher = better substrate or ligand; peptides without Tyr show the background
Kindly supply the reported phosphorylation enrichment values for the records listed here.
Answers are plain numbers.

| primarySequence | assayTarget | phosphorylation enrichment |
| --- | --- | --- |
| VVIMLYGVDSR [PKD1_Y3143_G3139V] | FGFR1 (UniProt P11362) | 0.545 |
| PDMHSYVVRYN [GRIN2D_Y732_M733V] | FGFR1 (UniProt P11362) | 0.56 |
| LKRIAYFLCLR [LGI1_Y21_L26R] | FGFR1 (UniProt P11362) | 0.365 |
| VTHKEYFIFLE [CAMKV_Y95_R92H] | FGFR1 (UniProt P11362) | 2.2 |

Consider the record given below.
Query :: What measured phosphorylation enrichment is associated with SWSTSYSGFRC [NKAPL_Y91_Y96C_YF] on FGFR1 (UniProt P11362)?
Result :: 0.528

====

assayTarget: FGFR3 (UniProt P22607)
Sequence (P22607 whole entry, looked up): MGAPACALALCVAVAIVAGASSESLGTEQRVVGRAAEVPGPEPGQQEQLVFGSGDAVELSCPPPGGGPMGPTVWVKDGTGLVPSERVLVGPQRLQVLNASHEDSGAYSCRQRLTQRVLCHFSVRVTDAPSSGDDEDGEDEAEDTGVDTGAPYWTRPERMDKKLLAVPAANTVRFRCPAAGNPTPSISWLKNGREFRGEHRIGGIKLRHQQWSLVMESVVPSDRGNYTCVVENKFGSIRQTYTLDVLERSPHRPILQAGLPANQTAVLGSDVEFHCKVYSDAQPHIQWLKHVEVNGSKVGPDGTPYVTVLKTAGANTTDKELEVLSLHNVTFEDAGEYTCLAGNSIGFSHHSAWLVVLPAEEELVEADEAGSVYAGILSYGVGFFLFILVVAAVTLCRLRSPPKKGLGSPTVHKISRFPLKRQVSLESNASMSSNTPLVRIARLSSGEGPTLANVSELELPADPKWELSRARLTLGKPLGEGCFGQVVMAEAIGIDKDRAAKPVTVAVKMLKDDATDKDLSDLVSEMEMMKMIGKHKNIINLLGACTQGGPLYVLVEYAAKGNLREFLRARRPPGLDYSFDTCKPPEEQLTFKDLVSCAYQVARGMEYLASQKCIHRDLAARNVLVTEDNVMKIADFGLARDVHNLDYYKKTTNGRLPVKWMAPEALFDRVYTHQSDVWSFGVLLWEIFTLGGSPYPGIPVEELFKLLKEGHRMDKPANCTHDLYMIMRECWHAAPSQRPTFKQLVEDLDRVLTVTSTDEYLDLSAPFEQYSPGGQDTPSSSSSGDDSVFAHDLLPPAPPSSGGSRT
assayMethodText: phosphorylation enrichment, bacterial display (enrichment ratio); higher = better substrate or ligand; peptides without Tyr show the background
measurementLabel: phosphorylation enrichment
Give bare numbers.

Example cases with answers are listed next.
| primarySequence | observedResult |
| --- | --- |
| NFGTNYRVGSS [CPO_Y278_K273N_YF] | 0.424 |
| LQTFRYHGHSM [PDHA1_Y289_YF] | 0.999 |
| KGLKVYVNGTL [ADGRD1_Y183_E178K] | 0.677 |

Lab note: each sequence below needs its phosphorylation enrichment filled in.
1. RDHFGYRQSVT [CD55_Y245_YF]
2. IGVGSYSVCKR [RPS6KA3_Y433]
3. SISLKYEGRVF [ABL1_Y167_R166K_YF]
4. GRDVIYKGFED [NFU1_Y194_G190R]

Result ::
[0.791, 0.496, 0.771, 0.539]
